Origin of values: ChEMBL document CHEMBL5576124

biological target: Protein cereblon/Mitogen-activated protein kinase kinase kinase kinase 1 (Homo sapiens, UniProt Q92918+Q96SW2); assay: PROTAC activity at CRBN/HPK1 in human Jurkat cells assessed as degradation of HPK1 protein incubated for 24 hrs by Western blotting analysis; assay type: cell-based
Sequence (Q96SW2 whole entry, one chain of several): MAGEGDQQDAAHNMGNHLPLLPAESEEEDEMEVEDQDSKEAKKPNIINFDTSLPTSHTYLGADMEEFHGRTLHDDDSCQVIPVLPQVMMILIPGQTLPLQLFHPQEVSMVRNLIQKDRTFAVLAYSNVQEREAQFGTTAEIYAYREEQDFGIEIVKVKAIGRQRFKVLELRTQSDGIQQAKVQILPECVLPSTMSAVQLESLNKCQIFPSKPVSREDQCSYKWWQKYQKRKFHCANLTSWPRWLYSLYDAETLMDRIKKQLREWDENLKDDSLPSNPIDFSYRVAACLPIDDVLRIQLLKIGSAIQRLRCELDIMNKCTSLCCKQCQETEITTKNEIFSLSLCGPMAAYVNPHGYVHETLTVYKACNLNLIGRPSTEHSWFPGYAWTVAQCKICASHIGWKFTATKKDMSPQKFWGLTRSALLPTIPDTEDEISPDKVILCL
observable: DC50 (nM)

Here is how some compounds turned out for DC50.
compound	experimental-result
Cc1cc(-c2c[nH]c3ncc(-c4ccc(N5CCN(C6CCN(c7ccc8c(c7)C(=O)N(C7CCC(=O)NC7=O)C8=O)CC6)CC5)cc4)nc23)ccc1C(=O)N(C)C (stereo not drawn)	99.2
Cc1cc(-c2c[nH]c3ncc(-c4ccc(C5CCN(CC6CCN(c7ccc8c(c7)C(=O)N(C7CCC(=O)NC7=O)C8=O)C6)CC5)cc4)nc23)ccc1C(=O)N(C)C (stereo not drawn)	78.8

P: Cc1cc(-c2c[nH]c3ncc(-c4ccc(C5CCN(C6CCN(c7ccc8c(c7)C(=O)N(C7CCC(=O)NC7=O)C8=O)C6)CC5)cc4)nc23)ccc1C(=O)N(C)C (stereo not drawn)
Q: Cc1cc(-c2c[nH]c3ncc(-c4ccc(N5CCN(CC6CCN(c7ccc8c(c7)C(=O)N(C7CCC(=O)NC7=O)C8=O)C6)CC5)cc4)nc23)ccc1C(=O)N(C)C (stereo not drawn)
Which value of DC50 is numerically greater: that of P or that of Q ? Answer with the label corresponding to your selection.
Q

* * *

test: Tmax in ICR mouse at 1 mg/kg,iv measured upto 24 hrs by LC-MS analysis; assay type: ADME, organism-based; conditions: in vivo
observable: Tmax (min)
State just the number; it will be interpreted in min.

For the molecule shown here, Cc1cc(-c2c[nH]c3ncc(-c4ccc(C5CCN(C6CN(c7ccc8c(c7)C(=O)N(C7CCC(=O)NC7=O)C8=O)C6)CC5)cc4)nc23)ccc1C(=O)N(C)C (stereo unspecified) , give the reported Tmax.
4.8

* * *

test: MRT in Sprague-Dawley rat at 10 mg/kg,po measured upto 24 hrs by LC-MS analysis; type: ADME, organism-based; details: in vivo
observable: MRT (h)

compound	unit-descriptor	experimental-result
Cc1cc(-c2c[nH]c3ncc(-c4ccc(N5CCN(c6cccc7c6C(=O)N(C6CCC(=O)NC6=O)C7=O)CC5)cc4)nc23)ccc1C(=O)N(C)C (stereo not given)	h	6.8

A: Cc1cc(-c2c[nH]c3ncc(-c4ccc(C5CCN(C6CN(c7ccc8c(c7)C(=O)N(C7CCC(=O)NC7=O)C8=O)C6)CC5)cc4)nc23)ccc1C(=O)N(C)C (stereo not given)
B: Cc1cc(-c2c[nH]c3ncc(-c4ccc(C5CCN(C(=O)CCOCCOCCOc6cccc7c6C(=O)N(C6CCC(=O)NC6=O)C7=O)CC5)cc4)nc23)ccc1C(=O)N(C)C (stereo not given)
C: Cc1cc(-c2c[nH]c3ncc(-c4ccc(N5CCN(CC6CCN(c7ccc8c(c7)C(=O)N(C7CCC(=O)NC7=O)C8=O)CC6)CC5)cc4)nc23)ccc1C(=O)N(C)C (stereo not given)
Hey, quick one: sort these by MRT, low to high? A ranking is expressed here by listing the labels in the requested order.
B, A, C

* * *

assay: Cmax in ICR mouse at 1 mg/kg,iv measured upto 24 hrs by LC-MS analysis; type: ADME, organism-based; settings: in vivo
observable: Cmax (ng/mL)
State just the number; it will be interpreted in ng/mL.

For the compound shown here, Cc1cc(-c2c[nH]c3ncc(-c4ccc(C5CCN(C6CN(c7ccc8c(c7)C(=O)N(C7CCC(=O)NC7=O)C8=O)C6)CC5)cc4)nc23)ccc1C(=O)N(C)C (stereo unspecified) , give the reported Cmax.
3000

* * *

assay: Bioavailability in ICR mouse at 10 mg/kg,po or 1 mg/kg,iv measured upto 24 hrs by LC-MS analysis; assay type: ADME, organism-based; conditions: in vivo
observable: bioavailability (%)
State just the number; it will be interpreted in %.

For the compound shown here, Cc1cc(-c2c[nH]c3ncc(-c4ccc(C5CCN(C6CN(c7ccc8c(c7)C(=O)N(C7CCC(=O)NC7=O)C8=O)C6)CC5)cc4)nc23)ccc1C(=O)N(C)C (stereo unspecified) , give the reported bioavailability.
81.7

* * *

assay: Cmax in Sprague-Dawley rat at 10 mg/kg,po measured upto 24 hrs by LC-MS analysis; assay type: ADME, organism-based; settings: in vivo
observable: Cmax (ng/mL)

Here is how some molecules turned out for Cmax.
molecule	Cmax / ng/mL
Cc1cc(-c2c[nH]c3ncc(-c4ccc(N5CCN(CC6CCN(c7ccc8c(c7)C(=O)N(C7CCC(=O)NC7=O)C8=O)CC6)CC5)cc4)nc23)ccc1C(=O)N(C)C (stereo not given)	636
Cc1cc(-c2c[nH]c3ncc(-c4ccc(N5CCN(CC6CN(c7ccc8c(c7)C(=O)N(C7CCC(=O)NC7=O)C8=O)C6)CC5)cc4)nc23)ccc1C(=O)N(C)C (stereo not given)	1500

A: Cc1cc(-c2c[nH]c3ncc(-c4ccc(C5CCN(C6CN(c7ccc8c(c7)C(=O)N(C7CCC(=O)NC7=O)C8=O)C6)CC5)cc4)nc23)ccc1C(=O)N(C)C (stereo not given)
B: Cc1cc(-c2c[nH]c3ncc(-c4ccc(C5CCN(C(=O)CCOCCOCCOc6cccc7c6C(=O)N(C6CCC(=O)NC6=O)C7=O)CC5)cc4)nc23)ccc1C(=O)N(C)C (stereo not given)
C: Cc1cc(-c2c[nH]c3ncc(-c4ccc(N5CCN(c6cccc7c6C(=O)N(C6CCC(=O)NC6=O)C7=O)CC5)cc4)nc23)ccc1C(=O)N(C)C (stereo not given)
Ranking field: Cmax; order: falling. A ranking is expressed here by listing the labels in the requested order.
A, C, B

* * *

assay: Half life in ICR mouse at 10 mg/kg,po measured upto 24 hrs by LC-MS analysis; assay type: ADME, organism-based; conditions: in vivo
observable: half-life (min)
State just the number; it will be interpreted in min.

For the compound shown here, Cc1cc(-c2c[nH]c3ncc(-c4ccc(C5CCN(C6CN(c7ccc8c(c7)C(=O)N(C7CCC(=O)NC7=O)C8=O)C6)CC5)cc4)nc23)ccc1C(=O)N(C)C (stereo unspecified) , give the reported half-life.
260

* * *

assay: Stability in human liver microsomes assessed as parent compound remaining measured after 30 mins; type: ADME, Microsome; conditions: read-out: Stability
observable: remaining at 0.5 h (%)
State just the number; it will be interpreted in %.

For the compound shown here, Cc1cc(-c2c[nH]c3ncc(-c4ccc(C5CCN(C6CN(c7ccc8c(c7)C(=O)N(C7CCC(=O)NC7=O)C8=O)C6)CC5)cc4)nc23)ccc1C(=O)N(C)C (stereo unspecified) , give the reported remaining at 0.5 h.
98.3

* * *

test: Half life in Sprague-Dawley rat at 10 mg/kg,po measured upto 24 hrs by LC-MS analysis; type: ADME, organism-based; conditions: in vivo
observable: half-life (h)

molecule	unit-descriptor	experimental-result
Cc1cc(-c2c[nH]c3ncc(-c4ccc(N5CCN(CC6CN(c7ccc8c(c7)C(=O)N(C7CCC(=O)NC7=O)C8=O)C6)CC5)cc4)nc23)ccc1C(=O)N(C)C (stereo not given)	h	4.86
Cc1cc(-c2c[nH]c3ncc(-c4ccc(N5CCN(CC6CCN(c7ccc8c(c7)C(=O)N(C7CCC(=O)NC7=O)C8=O)CC6)CC5)cc4)nc23)ccc1C(=O)N(C)C (stereo not given)	h	16.7

P: Cc1cc(-c2c[nH]c3ncc(-c4ccc(C5CCN(C(=O)CCOCCOCCOc6cccc7c6C(=O)N(C6CCC(=O)NC6=O)C7=O)CC5)cc4)nc23)ccc1C(=O)N(C)C (stereo not given)
Q: Cc1cc(-c2c[nH]c3ncc(-c4ccc(C5CCN(C6CN(c7ccc8c(c7)C(=O)N(C7CCC(=O)NC7=O)C8=O)C6)CC5)cc4)nc23)ccc1C(=O)N(C)C (stereo not given)
Which value of half-life is numerically greater: that of P or that of Q ? Answer with the label corresponding to your selection.
Q
(Q: 6.58 h, P: 2.3 h)

* * *

assay: Tmax in ICR mouse at 10 mg/kg,po measured upto 24 hrs by LC-MS analysis; format: ADME, organism-based; settings: in vivo
observable: Tmax (h)
State just the number; it will be interpreted in h.

For the compound shown here, Cc1cc(-c2c[nH]c3ncc(-c4ccc(C5CCN(C6CN(c7ccc8c(c7)C(=O)N(C7CCC(=O)NC7=O)C8=O)C6)CC5)cc4)nc23)ccc1C(=O)N(C)C (stereo unspecified) , give the reported Tmax.
4

* * *

assay: Stability in human liver microsomes assessed as parent compound remaining measured after 15 mins; assay type: ADME, Microsome; conditions: read-out: Stability
observable: remaining at 0.25 h (%)
State just the number; it will be interpreted in %.

For the compound shown here, Cc1cc(-c2c[nH]c3ncc(-c4ccc(C5CCN(C6CN(c7ccc8c(c7)C(=O)N(C7CCC(=O)NC7=O)C8=O)C6)CC5)cc4)nc23)ccc1C(=O)N(C)C (stereo unspecified) , give the reported remaining at 0.25 h.
101

* * *

biological target: Mitogen-activated protein kinase kinase kinase kinase 1 (Homo sapiens); experiment: Inhibition of HPK1 (unknown origin)
Sequence (Q92918 whole entry): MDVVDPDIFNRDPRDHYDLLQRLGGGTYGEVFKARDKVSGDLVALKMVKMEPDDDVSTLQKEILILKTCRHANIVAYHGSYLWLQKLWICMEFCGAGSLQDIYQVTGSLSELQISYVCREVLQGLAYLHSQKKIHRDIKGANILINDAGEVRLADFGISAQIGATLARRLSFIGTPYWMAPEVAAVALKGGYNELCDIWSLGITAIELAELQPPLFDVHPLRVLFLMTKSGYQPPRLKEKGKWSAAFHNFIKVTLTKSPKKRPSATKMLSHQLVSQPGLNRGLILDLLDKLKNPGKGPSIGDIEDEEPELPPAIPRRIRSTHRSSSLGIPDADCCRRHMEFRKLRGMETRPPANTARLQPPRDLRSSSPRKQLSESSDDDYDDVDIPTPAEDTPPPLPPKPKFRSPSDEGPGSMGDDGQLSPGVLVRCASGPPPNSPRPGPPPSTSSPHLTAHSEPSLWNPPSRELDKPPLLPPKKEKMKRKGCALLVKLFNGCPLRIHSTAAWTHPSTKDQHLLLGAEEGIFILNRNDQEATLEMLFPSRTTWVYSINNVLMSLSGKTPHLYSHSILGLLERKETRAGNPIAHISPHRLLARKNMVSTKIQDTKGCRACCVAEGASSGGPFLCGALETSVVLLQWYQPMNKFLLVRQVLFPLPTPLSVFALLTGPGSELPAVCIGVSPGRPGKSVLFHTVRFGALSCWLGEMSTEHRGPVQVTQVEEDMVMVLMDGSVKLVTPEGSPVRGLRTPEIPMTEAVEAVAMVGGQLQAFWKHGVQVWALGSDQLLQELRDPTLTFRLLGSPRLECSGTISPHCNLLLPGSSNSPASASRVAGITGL
observable: IC50 (nM)

P: Cc1cc(-c2c[nH]c3ncc(-c4cc(C)c5c(c4)CN(C)CC5)nc23)ccc1C(=O)N(C)C
Q: Cc1cc(-c2c[nH]c3ncc(-c4ccc(C5CCN(C6CN(c7ccc8c(c7)C(=O)N(C7CCC(=O)NC7=O)C8=O)C6)CC5)cc4)nc23)ccc1C(=O)N(C)C (configuration not stated)
Which value of IC50 is numerically greater: that of P or that of Q ? Answer with the label corresponding to your selection.
Q
